- Test system: HCC1937 cells
- experimental details: Cellular PARylation assay
- Type: cell-based
- setup conditions: Homo sapiens; HCC1937 cells, compound 30 min then 1 mM H2O2 10 min; read-out: cellular PARylation EC50
For each record, write down the corresponding EC50.

Consider the following illustrative entries.
| compound | test target | EC50 |
| --- | --- | --- |
| CCOC(=O)C1CC1CN1CCC(C)(c2cnn3c2[nH]c2cc(F)cc(C(N)=O)c23)CC1 (stereo not shown) | HCC1937 cells | 1 to 100 nM |
| N#CC1(c2cnn3c2[nH]c2cc(F)cc(C(N)=O)c23)CCN(CC2CC2)CC1 | HCC1937 cells | 1 to 100 nM |
| CN1CCC(c2cnn3c2[nH]c2cc(F)cc(C(N)=O)c23)C1 (stereo not shown) | HCC1937 cells | 1 to 100 nM |

For every record below, what is its EC50?
1. NC(=O)c1cc(F)cc2[nH]c3c(CNC(=O)C4CC4)cnn3c12
2. CCN1CCC(c2cnn3c2[nH]c2cc(F)cc(C(N)=O)c23)C1 (stereo not shown)
3. CC1(c2cnn3c2[nH]c2cc(F)cc(C(N)=O)c23)CN(CC2CC2)C1
4. CN1CC(CN2CCC(C)(c3cnn4c3[nH]c3cc(F)cc(C(N)=O)c34)CC2)C1
5. CC1(c2cnn3c2[nH]c2cc(F)cc(C(N)=O)c23)CCN(CCF)C1 (stereo not shown)

["> 1000 nM", "1 to 100 nM", "1 to 100 nM", "1 to 100 nM", "1 to 100 nM"]

Below are 8 compounds. Give each one its EC50.
1. CCN1CCCC(c2cnn3c2[nH]c2cc(F)cc(C(N)=O)c23)C1 (stereo not shown)
2. CC1(c2cnn3c2[nH]c2cc(F)cc(C(N)=O)c23)CCN(CC2CC2(F)F)C1 (stereo not shown)
3. CCN1CCC(C)(c2cnn3c2[nH]c2cc(Cl)cc(C(N)=O)c23)CC1
4. CC1(c2cnn3c2[nH]c2cc(F)cc(C(N)=O)c23)CCN(S(C)(=O)=O)CC1
5. CC1(c2cnn3c2[nH]c2cc(F)cc(C(N)=O)c23)CCN(Cc2ccc(=O)[nH]n2)CC1
6. CN1CC2CC2(c2cnn3c2[nH]c2cc(F)cc(C(N)=O)c23)C1 (stereo not shown)
7. CC1(c2cnn3c2[nH]c2cc(F)cc(C(N)=O)c23)CCN(CC2(N)CC2)CC1
8. NC(=O)c1cc(F)cc2[nH]c3c(-c4ccc(F)cc4)cnn3c12

1. 101 to 1000 nM
2. 1 to 100 nM
3. 101 to 1000 nM
4. 101 to 1000 nM
5. 101 to 1000 nM
6. 1 to 100 nM
7. 1 to 100 nM
8. > 1000 nM
